- Method: Selectivity index, ratio of IC50 for human THP1 cells to IC50 for axenic amastigote stage of Leishmania infantum
- Format: toxicity, cell-based, THP-1
- Experimental Conditions: read-out: Ratio IC50
Returns one of rule met or rule not met; rule met when selectivity ratio is >= 7.

Sample answers from the record:
- Compound: "O=S(=O)(Nc1ccc([Se][Se]c2ccc(NS(=O)(=O)c3ccccc3)cc2)cc1)c1ccccc1"
  Assigned Class: "rule met"
- Compound: "CCCCCCCCCCCCCCCCCCOCC(COP(=O)([O-])OCC[N+](C)(C)C)OC (stereo unspecified) [EDELFOSINE]"
  Assigned Class: "rule not met"
- Compound: "Cc1ccc(S(=O)(=O)Nc2ccc([Se][Se]c3ccc(NS(=O)(=O)c4ccc(C)cc4)cc3)cc2)cc1"
  Assigned Class: "rule met"

Query: Say whether "Cn1ccnc1S(=O)(=O)Nc1ccc([Se][Se]c2ccc(NS(=O)(=O)c3nccn3C)cc2)cc1" shows selectivity ratio of 7 or more.
Result: rule not met

Query: Same thing, different compound: "COc1ccc(S(=O)(=O)Nc2ccc([Se][Se]c3ccc(NS(=O)(=O)c4ccc(OC)cc4)cc3)cc2)cc1"
Result: rule met

Query: Same thing, different compound: "O=S(=O)(Nc1ccc([Se][Se]c2ccc(NS(=O)(=O)c3cccs3)cc2)cc1)c1cccs1"
Result: rule not met

Query: Same thing, different compound: "O=S(=O)(Nc1ccc([Se][Se]c2ccc(NS(=O)(=O)c3ccccc3Cl)cc2)cc1)c1ccccc1Cl"
Result: rule met

Query: Same thing, different compound: "O=S(=O)(Nc1ccc([Se][Se]c2ccc(NS(=O)(=O)c3ccc(F)cc3)cc2)cc1)c1ccc(F)cc1"
Result: rule met
